# assayed-system: T1, IGFBP-3 (human, UniProt P17936 28-291)
# T1 construct: also called rhIGFBP-3
# T1 sequence (P17936 28-291 limits assumed): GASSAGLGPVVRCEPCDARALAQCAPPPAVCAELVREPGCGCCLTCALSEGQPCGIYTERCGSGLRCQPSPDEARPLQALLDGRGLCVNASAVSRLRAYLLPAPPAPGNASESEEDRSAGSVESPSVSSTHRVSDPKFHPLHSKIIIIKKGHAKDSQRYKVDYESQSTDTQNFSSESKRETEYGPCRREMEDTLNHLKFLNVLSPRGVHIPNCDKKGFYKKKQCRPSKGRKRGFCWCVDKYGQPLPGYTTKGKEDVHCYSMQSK
# procedure-text: BIAcore competition: peptide inhibits IGFBP-3 binding to IGF-I; ratio to bp3-01-ox

>  <binder>
EVCWPVAEWYLCN (bp3-01-ox variant) [bp3-27]

>  <IC50 (mut)/IC50 (wt) (ratio)>
1.4

$$$$
>  <binder>
GPETCWPVAEWYLCN (bp3-01-ox variant) [bp3-41]

>  <IC50 (mut)/IC50 (wt) (ratio)>
2

$$$$
>  <binder>
ASEEVCWPVAEWYLCNMWGR [4d3.3]

>  <IC50 (mut)/IC50 (wt) (ratio)>
2.8

$$$$
